# Tested on: KM12
# assay_comment: NCI tumour cell line growth inhibition, 48 h
The source made the active and inactive calls. No stated cut-off is given here; in the data, active = GI50 up to about 1.1 µM and inactive = higher.
GI50 overview

Below: 4 compounds and their reported GI50.
>>> result("O=[N+]([O-])c1cccnc1S(=O)(=O)c1ccccc1")
"19.6 µM (inactive)"
>>> result("COc1cc(Oc2nc3ccccc3nc2C(=O)O)cc(OC)c1OC")
"> 100 µM (inactive)"
>>> result("CC(=O)O[C@H]1[C@H](OC(C)=O)[C@@H](CN=[N+]=[N-])OCO[C@@H]1CN=[N+]=[N-]")
"> 100 µM (inactive)"
>>> result("O=C1CC2CCN(C(=O)c3ccccc3)CC2CCN1 (stereo not given)")
"> 100 µM (inactive)"

State the recorded GI50 for this entry: "CC1(C)N=C(/C(Cl)=[N+](/[O-])C(=O)c2ccc(Cl)cc2)C(C)(C)N1O"
45.3 µM (inactive)

* * *

# Test system: MDA-MB-435
# assay_comment: NCI tumour cell line growth inhibition, 48 h
Activity calls are given as the source filed them. Cut-off read from the data, not from the text of the source: active = GI50 up to about 1.1 µM and inactive = higher.
Overview of recorded GI50 for various molecules

>>> result("O=C1Nc2ccccc2C(=O)O/C(Cc2ccccc2)=N\\c2ccccc21")
"> 100 µM (inactive)"
>>> result("CC1(C)N=C(/C(Cl)=[N+](/[O-])C(=O)c2ccc(Cl)cc2)C(C)(C)N1O")
"22.3 µM (inactive)"
>>> result("O=C1Nc2ccc(Br)cc2/C1=N/Nc1ccccc1[N+](=O)[O-]")
"21.1 µM (inactive)"

Okay, now this molecule:
Reported GI50 for "CC[C@@]1(OC(=O)CN(C)C)C(=O)OCc2c1cc1n(c2=O)Cc2cc3ccccc3nc2-1" : what is it?
0.194 µM (active)

* * *

# System: NCI-H522
# assay_comment: NCI tumour cell line growth inhibition, 48 h
Activity calls are given as the source filed them. No stated cut-off is given here; in the data, active = GI50 up to about 1.1 µM and inactive = higher.
Lab note: assign the record to one of active, inactive

>>> classification("CCSc1n/c(=C\\c2ccc(N(C)C)cc2)c2nnnn12")
"inactive"
>>> classification("CCNCCNc1c2ccccc2nc2ccccc12")
"active"
>>> classification("COc1cc(OC)c(OC)cc1/C=C/c1ccc2ccccc2n1")
"inactive"
>>> classification("C[C@H]1C2Cc3cc(N)ccc3[C@@]1(C)CCN2CCc1ccccc1")
"inactive"
>>> classification("CCOC(=O)c1cn2c(n1)sc1cc(C)c(C)cc12")
"inactive"
>>> classification("CSc1nc(C)c(CCCl)c(Cl)n1")
"inactive"
>>> classification("Cc1c2ccncc2c(C)c2c1[nH]c1ccc(Cl)cc12")
"inactive"
>>> classification("CC1(C)COCN1COC1CCCCC1")
"inactive"
>>> classification("CCOc1cc2c(cc1O)/C(=N\\O)C[C@@H]1[C@@H]2CC[C@]2(C)[C@@H](O)CC[C@@H]12")
"active"
>>> classification("CC[C@@]1(OC(=O)CN(C)C)C(=O)OCc2c1cc1n(c2=O)Cc2cc3ccccc3nc2-1")
"active"

For "O=C(O)c1oc2cccc3c2c1CCC3" , which call appears in the assay record?
inactive

Tell me the recorded outcome of this test for "CCCCCCCCCCCCCP(=O)(O)OCC" .
inactive

Which outcome was assigned to "CC(=O)Nc1nc(NC(C)=O)c2nc(CO)[nH]c2n1" in this test?
inactive

Check the results log: what was the call for CC(=O)OCC1OC(n2c(=S)n(-c3ccc([N+](=O)[O-])cc3)c(=O)c3ccccc32)C(OC(C)=O)C(OC(C)=O)C1OC(C)=O (stereo unspecified) ?
inactive

Which result was noted for this compound in the test: CC(=O)c1c2c(cc3c1CC1(C3)Cc3ccc4c(c3C1=O)CCC4)CCC2 (stereo unspecified)
active

Assay result, entry "Oc1cccc(-c2cn3cc(C(F)(F)F)ccc3n2)c1" — outcome?
inactive
